The measurements presented in this section are drawn from ChEMBL document CHEMBL1155879.

The compounds listed here are annotated with their logP.
# PROTOCOL NOTES: Partition coefficient, log P of the compound
# Format: physicochemical
# SETUP CONDITIONS: octanol/water

{"columns": ["SMILES STR", "logP"],
 "data": [
  ["Cc1c(Br)cc(NCC(=O)N/N=C\\c2cc([N+](=O)[O-])ccc2O)cc1Br", 4.91],
  ["O=c1[nH]ncc(N/N=C\\c2ccc(O)c([N+](=O)[O-])c2)c1Cl", 4.84],
  ["Cc1oc(C(=O)O)cc1CSCc1cc(C(=O)O)c(C)o1", 1.87],
  ["O=C1Nc2c(C(=O)O)cccc2C1=O", 0.24],
  ["COc1ccc(-c2cnc3c(O)nc(O)nc3n2)cc1", 1.78],
  ["CSc1ccc(C(=O)O)s1", 1.92],
  ["NS(=O)(=O)c1ccc(CCNC(=O)CCS(=O)(=O)c2ccc(Br)cc2)cc1", 1.42],
  ["O=C(O)CSc1cc(Cl)c2nonc2c1[N+](=O)[O-]", 2.15],
  ["O=C(c1ccc(O)cc1)c1ccccc1O", 3.04]
]}

* * *

# TGT: DNA ligase 1 (Homo sapiens)
# PROTOCOL NOTES: Inhibition of human recombinant DNA ligase 1 by radioactive gel-based ligation assay
pIC50: −log10 of the molar value.
RECORDED METRIC: pIC50

{"columns": ["SMILES STR", "RECORDED METRIC", "ASSAY VALUE"],
 "data": [
  ["O=C1Nc2c(C(=O)O)cccc2C1=O", "pIC50", 5.40],
  ["O=c1[nH]ncc(N/N=C\\c2ccc(O)c([N+](=O)[O-])c2)c1Cl", "pIC50", 4.92],
  ["Cc1c(Br)cc(NCC(=O)N/N=C\\c2cc([N+](=O)[O-])ccc2O)cc1Br", "pIC50", 5.10],
  ["O=C(O)CSc1cc(Cl)c2nonc2c1[N+](=O)[O-]", "pIC50", 4.89],
  ["CSc1ccc(C(=O)O)s1", "pIC50", 5.00],
  ["O=C(c1ccc(O)cc1)c1ccccc1O", "pIC50", 4.60],
  ["NS(=O)(=O)c1ccc(CCNC(=O)CCS(=O)(=O)c2ccc(Br)cc2)cc1", "pIC50", 5.10],
  ["COc1ccc(-c2cnc3c(O)nc(O)nc3n2)cc1", "pIC50", 4.60],
  ["Cc1oc(C(=O)O)cc1CSCc1cc(C(=O)O)c(C)o1", "pIC50", 6.22]
]}

* * *

# TGT: DNA ligase 1 (Homo sapiens, UniProt P18858)
# Sequence (P18858 whole entry): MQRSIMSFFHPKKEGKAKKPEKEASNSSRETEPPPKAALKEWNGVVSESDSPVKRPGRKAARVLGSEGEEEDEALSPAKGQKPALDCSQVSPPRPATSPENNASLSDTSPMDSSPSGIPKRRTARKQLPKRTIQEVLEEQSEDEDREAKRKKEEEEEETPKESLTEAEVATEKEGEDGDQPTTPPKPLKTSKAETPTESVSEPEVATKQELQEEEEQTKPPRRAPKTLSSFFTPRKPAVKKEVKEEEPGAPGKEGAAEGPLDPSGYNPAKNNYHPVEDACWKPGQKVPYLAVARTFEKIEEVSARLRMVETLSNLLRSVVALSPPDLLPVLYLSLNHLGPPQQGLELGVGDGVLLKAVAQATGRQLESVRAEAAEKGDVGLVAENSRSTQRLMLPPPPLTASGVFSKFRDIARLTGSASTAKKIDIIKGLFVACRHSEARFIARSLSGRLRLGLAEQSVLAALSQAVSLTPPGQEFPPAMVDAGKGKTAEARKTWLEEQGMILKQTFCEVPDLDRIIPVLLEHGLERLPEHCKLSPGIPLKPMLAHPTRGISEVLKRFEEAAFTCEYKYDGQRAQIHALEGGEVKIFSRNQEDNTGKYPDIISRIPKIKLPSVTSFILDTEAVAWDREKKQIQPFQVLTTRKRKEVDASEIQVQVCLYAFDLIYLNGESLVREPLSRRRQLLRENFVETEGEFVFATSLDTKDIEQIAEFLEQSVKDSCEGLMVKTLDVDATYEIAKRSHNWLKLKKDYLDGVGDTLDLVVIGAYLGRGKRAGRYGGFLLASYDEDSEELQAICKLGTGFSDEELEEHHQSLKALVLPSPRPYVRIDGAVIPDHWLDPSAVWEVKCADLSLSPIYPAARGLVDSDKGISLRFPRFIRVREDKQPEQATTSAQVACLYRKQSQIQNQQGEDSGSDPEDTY
# PROTOCOL NOTES: Inhibition of human recombinant DNA ligase 1 at 100 uM by fluorescence energy transfer-based DNA joining assay relative to control
The compounds listed here are annotated with their inhibition.

{"columns": ["SMILES STR", "TGT", "UNITS LABEL", "inhibition"],
 "data": [
  ["COc1ccc(-c2cnc3c(O)nc(O)nc3n2)cc1", "DNA ligase 1 (Homo sapiens, UniProt P18858)", "%", 52.5],
  ["O=C(O)CSc1cc(Cl)c2nonc2c1[N+](=O)[O-]", "DNA ligase 1 (Homo sapiens, UniProt P18858)", "%", 60.6],
  ["NS(=O)(=O)c1ccc(CCNC(=O)CCS(=O)(=O)c2ccc(Br)cc2)cc1", "DNA ligase 1 (Homo sapiens, UniProt P18858)", "%", 53.4],
  ["O=C(c1ccc(O)cc1)c1ccccc1O", "DNA ligase 1 (Homo sapiens, UniProt P18858)", "%", 50.7],
  ["CSc1ccc(C(=O)O)s1", "DNA ligase 1 (Homo sapiens, UniProt P18858)", "%", 60.5],
  ["Cc1oc(C(=O)O)cc1CSCc1cc(C(=O)O)c(C)o1", "DNA ligase 1 (Homo sapiens, UniProt P18858)", "%", 91],
  ["O=c1[nH]ncc(N/N=C\\c2ccc(O)c([N+](=O)[O-])c2)c1Cl", "DNA ligase 1 (Homo sapiens, UniProt P18858)", "%", 59.8],
  ["Cc1c(Br)cc(NCC(=O)N/N=C\\c2cc([N+](=O)[O-])ccc2O)cc1Br", "DNA ligase 1 (Homo sapiens, UniProt P18858)", "%", 78.3],
  ["O=C1Nc2c(C(=O)O)cccc2C1=O", "DNA ligase 1 (Homo sapiens, UniProt P18858)", "%", 59.3]
]}

* * *

# TGT: DNA ligase 1 (Homo sapiens, UniProt P18858)
# PROTOCOL NOTES: Inhibition of human recombinant DNA ligase 1 using nicked DNA substrate by kinetic assay

{"columns": ["SMILES STR", "TGT", "Ki [µM]"],
 "data": [
  ["O=C1Nc2c(C(=O)O)cccc2C1=O", "DNA ligase 1 (Homo sapiens, UniProt P18858)", 4]
]}
